System: Mycobacterium leprae
Method: Inhibition of Mycobacterium leprae recombinant DNA gyrase expressed in Escherichia coli assessed as inhibition of pBR322 DNA supercoiling
Catalogue of IC50 readings, one per entry.
Respond numerically; units are µg/mL and should not be typed.

Example cases with answers are listed next.
>>> number("O=C(O)c1cn(C2CC2)c2cc(N3CCNCC3)c(F)cc2c1=O")
3.5
>>> number("C[C@H]1COc2c(N3CCN(C)CC3)c(F)cc3c(=O)c(C(=O)O)cn1c23.C[C@H]1COc2c(N3CCN(C)CC3)c(F)cc3c(=O)c(C(=O)O)cn1c23.O")
7
>>> number("C[C@@H]1CN(c2c(F)c(N)c3c(=O)c(C(=O)O)cn(C4CC4)c3c2F)C[C@H](C)N1")
5

Now look at this one.
Requested field: IC50. Item: NC1CCN(c2c(F)cc3c(=O)c(C(=O)O)cn(C4CC4)c3c2Cl)C1 (centres undefined)
3
